For each of the molecules below, state its relative β-galactosidase activity, inducer Es.
tested on: lacZ under control of the tetA promoter (PtetA) in E. coli KM3; format: cell-based; conditions: Table 6, reverse repressor hits; ethametsulfuron, same plate assay format (20 ppm)
Could you keep your reply to the number by itself?

relative β-galactosidase activity, inducer Es for L1-21: library L1 hit with reverse repressor activity (SEQ ID NO: 1206-1213) (protein, rSuR L1-21) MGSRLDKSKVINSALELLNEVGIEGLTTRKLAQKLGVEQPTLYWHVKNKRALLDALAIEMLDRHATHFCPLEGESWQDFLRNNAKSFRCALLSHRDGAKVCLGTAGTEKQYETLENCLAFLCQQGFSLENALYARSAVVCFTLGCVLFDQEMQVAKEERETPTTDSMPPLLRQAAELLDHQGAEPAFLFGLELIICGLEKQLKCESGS is 0.61

relative β-galactosidase activity, inducer Es in this record for L1-33: library L1 hit with reverse repressor activity (SEQ ID NO: 1206-1213) (protein, rSuR L1-33) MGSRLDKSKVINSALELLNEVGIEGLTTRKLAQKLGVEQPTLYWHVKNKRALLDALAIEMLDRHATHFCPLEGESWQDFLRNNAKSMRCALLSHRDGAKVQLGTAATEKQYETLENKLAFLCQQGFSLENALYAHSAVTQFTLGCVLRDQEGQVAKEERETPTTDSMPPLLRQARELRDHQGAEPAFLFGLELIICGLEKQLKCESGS : 2.11

// relative β-galactosidase activity, inducer Es lookup, molecule = L1-39: library L1 hit with reverse repressor activity (SEQ ID NO: 1206-1213) (protein, rSuR L1-39) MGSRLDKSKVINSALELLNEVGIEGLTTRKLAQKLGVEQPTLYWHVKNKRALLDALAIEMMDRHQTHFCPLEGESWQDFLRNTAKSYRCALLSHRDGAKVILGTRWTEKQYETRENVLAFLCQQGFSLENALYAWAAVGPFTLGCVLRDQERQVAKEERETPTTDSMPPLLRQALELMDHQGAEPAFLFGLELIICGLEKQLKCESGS , result: 0.60

Entry under test: L1-41: library L1 hit with reverse repressor activity (SEQ ID NO: 1206-1213) (protein, rSuR L1-41) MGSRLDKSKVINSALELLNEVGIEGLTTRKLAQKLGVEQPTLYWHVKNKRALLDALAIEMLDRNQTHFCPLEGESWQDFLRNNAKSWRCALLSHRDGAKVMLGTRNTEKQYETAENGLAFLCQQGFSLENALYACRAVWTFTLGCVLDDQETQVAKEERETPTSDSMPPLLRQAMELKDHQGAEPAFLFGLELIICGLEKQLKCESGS . Its relative β-galactosidase activity, inducer Es was 0.18
